Origin of values: patent US10301272B2

# Test target: UniProt P51449
# Sequence (P51449 whole entry, looked up, the tested form may be a part): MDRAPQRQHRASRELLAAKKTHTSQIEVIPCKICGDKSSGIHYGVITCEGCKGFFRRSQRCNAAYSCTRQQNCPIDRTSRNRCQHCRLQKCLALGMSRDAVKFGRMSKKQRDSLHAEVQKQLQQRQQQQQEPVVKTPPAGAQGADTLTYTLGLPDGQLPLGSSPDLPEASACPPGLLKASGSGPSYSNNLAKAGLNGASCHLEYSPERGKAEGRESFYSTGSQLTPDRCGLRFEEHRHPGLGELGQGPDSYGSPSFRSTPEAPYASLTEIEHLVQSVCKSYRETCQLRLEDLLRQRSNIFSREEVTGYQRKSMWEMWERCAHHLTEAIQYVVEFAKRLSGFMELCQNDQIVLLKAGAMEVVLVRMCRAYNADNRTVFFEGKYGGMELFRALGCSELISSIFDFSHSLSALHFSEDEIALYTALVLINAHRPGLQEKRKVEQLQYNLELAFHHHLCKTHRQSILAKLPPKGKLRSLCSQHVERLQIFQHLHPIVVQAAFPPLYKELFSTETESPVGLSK
# Measurement description: RORγ Gal4 Reporter Gene Assay
# Format: cell-based
Attribute: pIC50 (FF)

> print(dat)
                       smiles.representation       result
 1  CC(C)(O)CNC(=O)c1ncc(CC2CCCCC2)c(-c2cc(C(C)(C)C)cc(C(C)(C)C)c2)n1  6.0/6.2/6.1
 2  CC(C)(CCNC(=O)c1nc(CC2CCCCC2)c(-c2cc(C(C)(C)C)cc(C3(C)CC3)c2)s1)C(=O)O  6.3/7.0/7.0
 3  CC(C)(C)NS(=O)(=O)c1ccc(-c2sc(C(=O)NCCC(C)(C)C(=O)O)nc2CC2CCCCC2)c(Cl)c1Cl  6.4/8.2/8.2
 4  CC(C)(C)NS(=O)(=O)c1ccc(-c2sc(C(=O)N[C@H]3C[C@H](S(C)(=O)=O)C3)nc2CC2CCCCC2)c(Cl)c1Cl  7.3/8.0/8.2
 5  CC(C)(C)NS(=O)(=O)c1ccc(-c2sc(C(=O)N[C@H]3C[C@@H](S(C)(=O)=O)C3)nc2CC2CCCCC2)c(Cl)c1Cl  7.2/8.2/8.4
 6  CCS(=O)(=O)c1ccc(CC(=O)Nc2nc(CC3CCCCC3)c(-c3ccc(S(=O)(=O)NC(C)(C)C)c(C(F)(F)F)c3)s2)cc1  7.1/7.4/7.8
 7  CC(C)(C)NS(=O)(=O)c1ccc(-c2oc(C(=O)NC3CCS(=O)(=O)CC3)nc2CC2CCCCC2)c(Cl)c1Cl  6.6/8.4/8.2
 8  CC(C)(O)c1cc(-c2sc(C(=O)N[C@H]3C[C@@H](C(=O)O)C3)nc2CC2CCCCC2)cc(C2(C)CC2)c1  6.3/7.2/7.2
 9  CC(C)(C)c1cc(-c2nc(S(N)(=O)=O)sc2CC2CCCCC2)cc(C(C)(C)C)c1  5.9/6.1/6.0
10  CC(C)(C)NS(=O)(=O)c1ccc(-c2sc(C(=O)NC3CC3)nc2CC2CCCCC2)c(Cl)c1Cl  7.3/8.0/8.0

// pIC50 (FF) value for `CC(C)(C)NS(=O)(=O)c1ccc(-c2oc(C(=O)N[C@H]3C[C@H](C(=O)O)C3)nc2CC2CCCCC2)c(Cl)c1Cl` : 6.1/7.1/7.0

Query `CC(C)(C)c1cc(-c2sc(C(=O)NCC3(C(N)=O)CCOCC3)nc2CC2CCCCC2)cc(C2(C)CC2)c1` yields pIC50 (FF) of 7.0/7.5/7.7

Consider `CC(C)(O)CNC(=O)c1nc(CC2CCCCC2)c(-c2ccc(S(=O)(=O)NC3(C)COC3)c3ccccc23)s1` . Its measured pIC50 (FF) is 6.4/8.5/8.7

In plain terms, `NS(=O)(=O)c1c(Cl)cc(-c2sc(C(=O)NC3CCOCC3)nc2CC2CCCCC2)cc1C(F)(F)F` has a documented pIC50 (FF) of 5.6/6.1/6.5

Entry `CC(C)(C)NS(=O)(=O)c1ccc(-c2sc(C(=O)NC3CCS(=O)(=O)CC3)nc2CC2CCCCC2)c2ccccc12` ; pIC50 (FF) = 6.7/9.0/9.0

Sure, the documented pIC50 (FF) for `CC(C)COc1cc(-c2sc(C(=O)N[C@H]3C[C@H](C(=O)O)C3)nc2CC2CCCCC2)cc(C(C)(C)C)n1` is 5.9/7.4/7.4

Record summary for `CC(C)(C)NS(=O)(=O)c1ccc(-c2sc(C(=O)NCC3(O)CCS(=O)(=O)CC3)nc2CC2CCCCC2)c2ccccc12` : reported pIC50 (FF) = 6.6/8.5/8.7

Entry `CC(C)(C)NS(=O)(=O)c1ccc(-c2sc(C(=O)N[C@H]3C[C@H](C(=O)O)C3)nc2CC2CCCCC2)c2c1CCC2` — recorded pIC50 (FF) = 6.6/8.5/8.5

The molecule identified as `CC(C)(C)NS(=O)(=O)c1ccc(-c2sc(C(=O)N3CC4(COC4)C3)nc2CC2CCCCC2)c(Cl)c1Cl` registered its pIC50 (FF) at 6.6/7.9/8.0

Data point: `CC(C)(C)NS(=O)(=O)c1ccc(-c2sc(C(=O)NCC3(C(N)=O)CCOCC3)nc2CC2CCCCC2)cc1C(C)(C)C` ; pIC50 (FF) = 6.5/7.5/7.7
